Tgt: Bcl-2-like protein 10 (Homo sapiens)
Test summary: TR3 peptide-Bcl-B binding displacers, biochemical primary FP assay, phenotype converters (AID 1240);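 note: 0% = Bcl-B with tracer peptide and DMSO and 100% = tracer peptide lacking Bcl-B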
Recorded conditions: GST-Bcl-B / FITC-TR3 peptide fluorescence polarization; stronger effect = higher value; compound at 3.75 mg/L
In all, about 50,000 compounds went through this assay and about 800 (1.6%) showed an effect of 50% or more. Only a selection was taken, and strong results are over-represented in it overall.
Assay readout: displacement (%)
Numeric answer only, unit % assumed.

Recorded results for 2 compounds are shown here.
[
  {
    "Compound": "O=C(N/N=C/c1ccco1)c1ccc(C(=O)N/N=C/c2ccco2)cc1",
    "Unit of measure": "%",
    "Observed": 27.6
  },
  {
    "Compound": "COc1cc(/C=c2/sc3nc4ccccc4n3c2=O)cc(Br)c1OCc1ccccc1",
    "Unit of measure": "%",
    "Observed": 1.8
  }
]

I'd like to know its displacement. The compound in question is O=C(NCC1CCCO1)/C(=C/c1ccc(-c2ccccc2Cl)o1)NC(=O)c1ccccc1 (stereo not drawn)
19.7

I'd like to know its displacement. The compound in question is COc1ccc(-c2csc(/C(C#N)=C/c3ccc(C)o3)n2)cc1OC
-31.7

I'd like to know its displacement. The compound in question is COc1ccc(-c2csc(/C(C#N)=C\c3sccc3C)n2)cc1
1.8

I'd like to know its displacement. The compound in question is COc1cc([N+](=O)[O-])ccc1-c1ccc(/C=C2\C(=O)NC(=O)N(c3ccccc3)C2=O)o1
132

I'd like to know its displacement. The compound in question is Cc1ccsc1/C=C(/C#N)c1nc(-c2ccc(-c3ccccc3)cc2)cs1
3.1

I'd like to know its displacement. The compound in question is CCN1C(=O)N(CC)C2C1N(COC(C)=O)C(=O)N2COC(C)=O (stereo not drawn)
1.5
